Please respond with reported diameter of the inhibition zone (DIZ) for every item in the list.
test system: Staphylococcus aureus; test: Antibacterial activity against Staphylococcus aureus at 1 to 10 mg/mL after 24 hrs by agar well diffusion method; format: functional
// units = mm; emit number, no label

Tell me the measured diameter of the inhibition zone (DIZ) of CCOC(=O)C1=C(N)Sc2[nH]c(=S)[nH]c(=S)c2C1c1ccc(Cl)cc1 (stereo not given) , please.
16

Tell me the measured diameter of the inhibition zone (DIZ) of COc1cc(C2C(C#N)=C(NS(=O)(=O)c3ccccc3)Oc3[nH]c(=S)[nH]c(=O)c32)cc(OC)c1OC (stereo not given) , please.
14

Tell me the measured diameter of the inhibition zone (DIZ) of CCOC(=O)C1=C(N)Oc2[nH]c(=S)[nH]c(=O)c2C1c1ccc(Cl)cc1 (stereo not given) , please.
16

Tell me the measured diameter of the inhibition zone (DIZ) of "CN(C)[C@@H]1C(O)=C(C(N)=O)C(=O)[C@@]2(O)C(O)=C3C(=O)c4c(O)cccc4[C@@](C)(O)[C@H]3C[C@@H]12" , please.
26

Tell me the measured diameter of the inhibition zone (DIZ) of "CCOC=C1C(=O)NC(=S)NC1=O" , please.
13

Tell me the measured diameter of the inhibition zone (DIZ) of "NNC=C1C(=O)NC(=S)NC1=O" , please.
18

Tell me the measured diameter of the inhibition zone (DIZ) of COc1cc(C2c3c(nc[nH]c3=O)Oc3[nH]c(=S)[nH]c(=O)c32)cc(OC)c1OC (stereo not given) , please.
15

Tell me the measured diameter of the inhibition zone (DIZ) of COc1cc(C2C(C#N)=C(N)Oc3[nH]c(=S)[nH]c(=O)c32)cc(OC)c1OC (stereo not given) , please.
13

Tell me the measured diameter of the inhibition zone (DIZ) of COc1cc(C2c3c(nc(N)c(C#N)c3N)Oc3[nH]c(=S)[nH]c(=O)c32)cc(OC)c1OC (stereo not given) , please.
13

Tell me the measured diameter of the inhibition zone (DIZ) of "O=c1[nH]c(=S)nc2oc3cc(O)ccc3cc1-2" , please.
15
